- Tested on: AncSZ
- ASSAY_NOTES: phosphorylation enrichment, bacterial display (enrichment ratio); higher = better substrate or ligand; peptides without Tyr show the background;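 note: 11-residue human phosphosite peptides and single-mutation variants displayed on the E. coli surface, counted by deep sequencing, each peptide's frequency after selection divided by its frequency in the unselected input library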;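 note: frequency after pTyr selection over input frequency; kinase dosed for 20-30% of maximal phosphorylation in three min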
PROPERTY_LABEL: phosphorylation enrichment
# print the numeric value only

SEQUENCE_CODE	RESULT
DVLPEYKLQAP [KCNH2_Y388]	0.911
CTLLPYFSARV [DGKE_Y269_YF]	0.987

We next turn to a different sequence, shown below.
Short answer for IFRASYFRKGG [ALK_Y1282_YF] : phosphorylation enrichment was 1.02

###

- ASSAY_SYSTEM: Jak2 (UniProt O60674)
- Sequence (O60674 whole entry, looked up): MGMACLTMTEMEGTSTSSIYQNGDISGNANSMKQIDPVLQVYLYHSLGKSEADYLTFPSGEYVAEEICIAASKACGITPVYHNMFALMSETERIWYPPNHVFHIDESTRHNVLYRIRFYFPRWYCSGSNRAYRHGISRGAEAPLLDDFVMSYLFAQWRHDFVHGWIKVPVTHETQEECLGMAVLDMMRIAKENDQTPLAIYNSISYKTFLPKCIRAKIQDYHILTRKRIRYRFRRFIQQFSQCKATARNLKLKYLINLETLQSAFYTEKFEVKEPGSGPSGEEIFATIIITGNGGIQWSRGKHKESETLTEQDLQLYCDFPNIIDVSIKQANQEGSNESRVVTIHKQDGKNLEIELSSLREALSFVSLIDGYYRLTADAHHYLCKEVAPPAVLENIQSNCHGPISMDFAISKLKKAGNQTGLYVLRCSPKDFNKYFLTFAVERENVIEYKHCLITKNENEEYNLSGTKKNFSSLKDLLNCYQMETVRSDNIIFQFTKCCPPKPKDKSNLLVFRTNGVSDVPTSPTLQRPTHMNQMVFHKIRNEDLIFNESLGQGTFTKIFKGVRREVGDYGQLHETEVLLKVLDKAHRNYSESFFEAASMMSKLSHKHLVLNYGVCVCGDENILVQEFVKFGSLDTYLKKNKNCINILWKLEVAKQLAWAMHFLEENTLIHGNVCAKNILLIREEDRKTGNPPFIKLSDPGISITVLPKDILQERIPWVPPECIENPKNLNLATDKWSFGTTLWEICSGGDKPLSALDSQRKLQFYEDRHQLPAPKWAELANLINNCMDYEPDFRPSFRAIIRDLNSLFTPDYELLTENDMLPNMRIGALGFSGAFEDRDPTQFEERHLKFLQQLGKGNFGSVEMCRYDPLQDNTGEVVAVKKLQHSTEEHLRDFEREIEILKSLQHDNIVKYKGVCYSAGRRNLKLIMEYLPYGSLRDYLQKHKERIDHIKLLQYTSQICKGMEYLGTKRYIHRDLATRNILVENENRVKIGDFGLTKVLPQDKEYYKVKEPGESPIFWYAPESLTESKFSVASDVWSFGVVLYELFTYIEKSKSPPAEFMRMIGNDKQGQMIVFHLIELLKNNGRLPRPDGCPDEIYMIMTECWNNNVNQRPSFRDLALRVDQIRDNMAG
- ASSAY_NOTES: phosphorylation enrichment, bacterial display (enrichment ratio); higher = better substrate or ligand; peptides without Tyr show the background
Below is a list of entries, each paired with its recorded phosphorylation enrichment value.
# print the numeric value only

Use the examples below as a reference point.
SEQUENCE_CODE	phosphorylation enrichment
AESPEYVHMYT [FAM111A_Y511]	0.962
MIRSTYALGGL [CPS1_Y590_A589T]	0.73
TFRPPYYHRDC [HGD_Y333_N337D]	0.82
DPYHVYIKNHV [KCNE3_Y95_R99H]	0.798
VNKIYYPDFIV [LIG3_Y768]	0.666

Response field phosphorylation enrichment (Jak2 (UniProt O60674)) for item IDSTPYRQWYE [RPS8_Y109] : 0.79

Response field phosphorylation enrichment (Jak2 (UniProt O60674)) for item LTGIAYSLPHW [SLC22A14_Y291] : 0.997

Response field phosphorylation enrichment (Jak2 (UniProt O60674)) for item FPCSVYMPDEW [INSR_Y1011_V1012M] : 1.1

Response field phosphorylation enrichment (Jak2 (UniProt O60674)) for item FSCLPCGRLAF [SLC52A2_Y305_Y305C_YF] : 0.67

Response field phosphorylation enrichment (Jak2 (UniProt O60674)) for item SVVVPYEPPEI [TP53_Y220_V225I] : 0.967

Response field phosphorylation enrichment (Jak2 (UniProt O60674)) for item PLQNTYNFNVL [SLC4A1_Y553_K551N_YF] : 0.959

Response field phosphorylation enrichment (Jak2 (UniProt O60674)) for item LDVDVYGPSVP [NUBPL_Y109] : 0.829

Response field phosphorylation enrichment (Jak2 (UniProt O60674)) for item VDLSKYITTIA [FAS_Y232] : 0.67

Response field phosphorylation enrichment (Jak2 (UniProt O60674)) for item LANNEYYFRVC : 1.51

Response field phosphorylation enrichment (Jak2 (UniProt O60674)) for item QQLVAYYSKHT [SRC_Y232_A237T] : 0.932

Response field phosphorylation enrichment (Jak2 (UniProt O60674)) for item AALLNYKAGRD [GRIN2A_Y737_V734L] : 0.508

Response field phosphorylation enrichment (Jak2 (UniProt O60674)) for item IGLHAYGDQYR [IDH1_Y135_R132L] : 0.563

Response field phosphorylation enrichment (Jak2 (UniProt O60674)) for item FISVGYVDDTQ [HLA-B_Y51] : 0.801

Response field phosphorylation enrichment (Jak2 (UniProt O60674)) for item GGTPLYRDRQG [AGXT_Y194_M195R] : 0.4

Response field phosphorylation enrichment (Jak2 (UniProt O60674)) for item SFTDPYAQPPL [KMT2D_Y2378_YF] : 0.722
